All figures here come from patent US20050282743A1.

- target.or.system: T1, GST-FLJ 10324 PDZ domain 1 [GST: P08515]
- T1 chain: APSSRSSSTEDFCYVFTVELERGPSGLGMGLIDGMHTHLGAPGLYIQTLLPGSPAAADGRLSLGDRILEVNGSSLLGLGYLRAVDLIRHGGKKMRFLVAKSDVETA
- method.notes: G assay titration, PDZ 1 ug/ml
Please respond with reported pKd for every item in the list.
One number for each entry, as −log10 of the molar value.

Solved entries (count: 2):
STDNLVRPFMDTLASHQLYI (modifications not checked) [presenilin-2] :: 6.00
KTMPAAMYRLLTAQEQPVYI (modifications not checked) [MINT-1] :: 6.00

Note: attention shifts to another entry.
Query string: If you can, please state the reported pKd value of RELVDRGEVRQFTLRHWLKV (modifications not checked) [Dopamine transporter] .
Result string: 6.52
